- assayed.system: T1, tissue factor (TF) on the surface of TF-positive tumor cells (human, UniProt P13726 33-295)
- T1 construct: whole, on cells; The cell line used is named under assay or readout in each row; also called TF on NCI-H358 cells; TF on KYSE520 cells
- assay.procedure: flow cytometry on KYSE520 cells
endpoint.name: EC50

[[record]]
binder = "2B12B10-hz1 (antibody, human IgG1, kappa, V domains shown, Humanized IgG1 kappa) VH: EVQLVESGGGLVQPGGSLRLSCAASGFAFSDSGMHWVRQAPGKGLEWVAYISRDSNTIYYADSVKGRFTISRDNAKNSLYLQMNSLRAEDTAVYYCGRRYYGDYFDYWGQGTLVTVSS VL: DIVLTQSPATLSLSPGERATLSCRASQRVTNYLHWYQQKPGQSPRLLIKYASQSISGIPARFSGSGSGTDFTLTISSLEPEDFAVYFCQQSYNWPLTFGQGTKVEIKR"
endpoint_name = "EC50"
recorded_measurement = "0.14 µg/mL"


Give EC50 for all binders that follow.
1. 30G11B7-hz1 (antibody, human IgG1, kappa, V domains shown, Humanized IgG1 kappa) VH: EVQLVESGGGLVKPGGSLRLSCAASGFTFSDYGMFWVRQAPGKGLEWVAYISRGSTTIYYADSVKGRFTISRDNAKNSLYLQMNSLRAEDTAVYFCTRRYYGDYFDYWGQGTLVTVSS VL: EIVLTQSPDFQSVTPKEKVTITCRASQSISNYLHWYQQKPDQSPKLLIKYASQSISGVPSRFSGSGSGTDFTLTINSLEAEDAATYFCQQSYNWPLTFGQGTKVEIKR
2. 27H8H3-hz1 (antibody, human IgG1, kappa, V domains shown, Humanized IgG1 kappa) VH: QVQLVQSGAEVKKPGASVKVSCKASGYTFTTYWMHWVRQAPGQGLEWMGMIDPSDSYTSYAQKFQGRVTLTVDTSTSTAYMELSSLRSEDTAVYYCTRGSGPGLFAYWGQGTLVTVSS VL: DIQETQSPSSLSASVGDRVTITCRASQGISNYLNWYQQKPGKAPKLLIYHTSRLHSGVPSRFSGSVSGTDFTLTISSLQPEDFATYFCQQGNTLPYTFGQGTKVEIKR

1: 0.138 µg/mL; 2: 0.0594 µg/mL
